system: EKVX; test: relative viability (nuclei count vs DMSO), 5 days (fraction); higher = more cells survive; settings: first compound 0.4 µM
measuredParameter: relative viability

* Cc1sc2c(c1C)C(c1ccc(Cl)cc1)=N[C@@H](CC(=O)OC(C)(C)C)c1nnc(C)n1-2 [JQ1] + CCNC(=O)c1noc(-c2cc(C(C)C)c(O)cc2O)c1-c1ccc(CN2CCOCC2)cc1 [Luminespib] (partner 0.01 µM) | 0.895
* Cc1sc2c(c1C)C(c1ccc(Cl)cc1)=N[C@@H](CC(=O)OC(C)(C)C)c1nnc(C)n1-2 [JQ1] + Nc1nc2[nH]cc(CCc3ccc(C(=O)N[C@@H](CCC(=O)O)C(=O)O)cc3)c2c(=O)[nH]1 [Pemetrexed] (partner 0.2 µM) | 0.304
* Cc1sc2c(c1C)C(c1ccc(Cl)cc1)=N[C@@H](CC(=O)OC(C)(C)C)c1nnc(C)n1-2 [JQ1] + Cc1nc(Nc2ncc(C(=O)Nc3c(C)cccc3Cl)s2)cc(N2CCN(CCO)CC2)n1 [Dasatinib] (partner 0.075 µM) | 0.473
* Cc1sc2c(c1C)C(c1ccc(Cl)cc1)=N[C@@H](CC(=O)OC(C)(C)C)c1nnc(C)n1-2 [JQ1] + CS(=O)(=O)N1CCN(Cc2cc3nc(-c4cccc5[nH]ncc45)nc(N4CCOCC4)c3s2)CC1 [Pictilisib] (partner 1 µM) | 0.459
* Cc1sc2c(c1C)C(c1ccc(Cl)cc1)=N[C@@H](CC(=O)OC(C)(C)C)c1nnc(C)n1-2 [JQ1] + COc1cc2c(Oc3ccc(NC(=O)C4(C(=O)Nc5ccc(F)cc5)CC4)cc3F)ccnc2cc1OCCCN1CCOCC1 [Foretinib] (partner 0.25 µM) | 0.787
* Cc1sc2c(c1C)C(c1ccc(Cl)cc1)=N[C@@H](CC(=O)OC(C)(C)C)c1nnc(C)n1-2 [JQ1] + COc1cccc2cc(-c3nc([C@H]4CC[C@H](C(=O)O)CC4)n4ncnc(N)c34)[nH]c12 [OSI-027] (partner 0.5 µM) | 0.722

----------
system: EPLC-272H; assay: relative viability (nuclei count vs DMSO), 5 days (fraction); higher = more cells survive; details: first compound 0.4 µM
# maps each entry to its relative viability
measuredParameter: relative viability

* Cc1sc2c(c1C)C(c1ccc(Cl)cc1)=N[C@@H](CC(=O)OC(C)(C)C)c1nnc(C)n1-2 [JQ1] + CS(=O)(=O)CCNCc1ccc(-c2ccc3ncnc(Nc4ccc(OCc5cccc(F)c5)c(Cl)c4)c3c2)o1 [Lapatinib] (partner 2 µM) | 0.994
* Cc1sc2c(c1C)C(c1ccc(Cl)cc1)=N[C@@H](CC(=O)OC(C)(C)C)c1nnc(C)n1-2 [JQ1] + C[C@]1(O)C[C@@H](c2nc(-c3ccc4ccc(-c5ccccc5)nc4c3)c3c(N)nccn32)C1 [Linsitinib] (partner 1 µM) | 1.12
* Cc1sc2c(c1C)C(c1ccc(Cl)cc1)=N[C@@H](CC(=O)OC(C)(C)C)c1nnc(C)n1-2 [JQ1] + COc1cccc2cc(-c3nc([C@H]4CC[C@H](C(=O)O)CC4)n4ncnc(N)c34)[nH]c12 [OSI-027] (partner 0.5 µM) | 0.275
* Cc1sc2c(c1C)C(c1ccc(Cl)cc1)=N[C@@H](CC(=O)OC(C)(C)C)c1nnc(C)n1-2 [JQ1] + Cc1nc(Nc2ncc(C(=O)Nc3c(C)cccc3Cl)s2)cc(N2CCN(CCO)CC2)n1 [Dasatinib] (partner 0.075 µM) | 0.358
* Cc1sc2c(c1C)C(c1ccc(Cl)cc1)=N[C@@H](CC(=O)OC(C)(C)C)c1nnc(C)n1-2 [JQ1] + CC(=O)c1c(C)c2cnc(Nc3ccc(N4CCNCC4)cn3)nc2n(C2CCCC2)c1=O [Palbociclib] (partner 0.5 µM) | 0.308
